Assignment: determine reported SPOT intensity for the given binders.
Molecular target: T1, Sla1-2, P32790
T1 sequence (P32790 60-140, looked up): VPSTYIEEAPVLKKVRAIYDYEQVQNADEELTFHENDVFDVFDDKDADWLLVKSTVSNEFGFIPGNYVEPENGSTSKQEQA
Experiment: SPOT array
Settings: median of control spots 712
Would you mind answering with just the numeric figure?

Prompt: For AHFQPQRTAPKPPIS , what is its reported SPOT intensity?
Completion: 0

Prompt: For RPPRPPPKPLHLRTE , what is its reported SPOT intensity?
Completion: 1

Prompt: For FHLNPKRSAVLYDRP , what is its reported SPOT intensity?
Completion: 0

Prompt: For VGFRLALKFPSRITG , what is its reported SPOT intensity?
Completion: 52

Prompt: For GPPPPLPPPLFPSSS , what is its reported SPOT intensity?
Completion: 0

Prompt: For IKTRSVPKIPSIESV , what is its reported SPOT intensity?
Completion: 1

Prompt: For RRSKSLPTTPGIRSG , what is its reported SPOT intensity?
Completion: 0

Prompt: For NQARKPFLLPATELS , what is its reported SPOT intensity?
Completion: 1

Prompt: For PALPSLPPPPLLNVD , what is its reported SPOT intensity?
Completion: 0

Prompt: For QPWTDQFEKLEKEVS , what is its reported SPOT intensity?
Completion: 0

Prompt: For IVNKPLPPLPVAGSS , what is its reported SPOT intensity?
Completion: 0

Prompt: For GATNNAPTLPKRKNP , what is its reported SPOT intensity?
Completion: 92

Prompt: For NPLPKEPRLPKRKVA , what is its reported SPOT intensity?
Completion: 2

Prompt: For QLLNPNRRAPRRPLS , what is its reported SPOT intensity?
Completion: 3

Cited source: paper PMC2756588
